From: patent US20220064329A1

Overview of recorded AT inhibition (kinh %) for various binders
Biological target: T1, recombinant human activated Factor VII (FVIIa) (human, UniProt P08709 61-212; P08709 213-466, Gla domain: ten glutamate residues may be gamma-carboxylated)
T1 sequence 1: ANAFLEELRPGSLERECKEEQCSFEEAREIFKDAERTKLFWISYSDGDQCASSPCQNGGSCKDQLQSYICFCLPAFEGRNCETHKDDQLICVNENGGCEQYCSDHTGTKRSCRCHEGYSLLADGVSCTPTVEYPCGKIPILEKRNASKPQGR
T1 sequence 2: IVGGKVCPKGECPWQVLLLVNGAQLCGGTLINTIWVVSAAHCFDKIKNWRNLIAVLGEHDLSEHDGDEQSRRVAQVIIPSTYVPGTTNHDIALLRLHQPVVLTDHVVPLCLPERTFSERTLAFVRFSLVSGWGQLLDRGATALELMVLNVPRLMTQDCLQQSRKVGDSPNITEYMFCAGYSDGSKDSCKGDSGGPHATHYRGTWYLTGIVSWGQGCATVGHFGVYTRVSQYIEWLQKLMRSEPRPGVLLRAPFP
Experiment: cell-based or functional assay
Output spec: scalar in %, unitless text.

Worked cases, AT inhibition (kinh %) given:
In: // AT inhibition (kinh %) lookup, key: mAb0018 (antibody, V domains shown, fully murine, hybridoma-derived; also called 8F19) VH: QITLKESGPGILKPSQTLSLTCSFSGFSLSTSGLGVGWIRQTSGKGLEWLAHIWWDDDKYYYPPLKSQLTISKDTSRNQVFLKITSVDTADTATYYCARRAFYDGYYGPMEYWGQGTSVTVSS VL: DIVLSQSPSSLAVSVGEKVTMSCKSSQSLLYSSNQKNSLAWYQHKPGQSPKLLIYWASTRESGVPDRFTGSGSGTDFTLTISNVKAEDLAVYYCHQYYNYLLTFGPGTKLELK
Out: 525

In: Name the reported AT inhibition (kinh %) value associated with the binder mAb0552 (antibody, V domains shown, fully murine, hybridoma-derived; also called 11F18) VH: DVQLQESGPGLVKPSQSLSLTCTVTGYSITSDCAWNWIRQFPGNKLEWMGYINYSGSTNYNPSLKSRISITRDTSKNHFFLQLNSVTAEDTATYYCARSVDYFGNSFAVGYWGQGTSVAVSS VL: DIVMTQSPATLSVTPGDRVSLSCRASQSISDYLHWYQQKSHESPRLLIKYSSQSISGIPSRFSGSGSGSDFTLSINSVEPEDVGVYYCQNGHSFPLTFGAGTKLELK
Out: 118

In: Entry mAb0587 (antibody, V domains shown, fully murine, hybridoma-derived; also called 12F39) VH: QVQLQQSGAELLKPGASVKISCKATDYTFSRYWIEWVKQRPGHGLEWIGEILPGSVNIKYNEIFKGKATFTAETSSNTAYMQLSSLTSEDSAVYYCTRTPYLQRGAYWGQGTLVTVSA VL: QIVLTQSPAIMSASPGEKVTITCSASSSVSYMFWFQQKPGTSPKLWIYSTSNLASGVPARFSGSGSGTSYSLTISRMEAEDAATYYCQQRSSYPLTFGAGTKLELK has what AT inhibition (kinh %)?
Out: 103

In: Record request: AT inhibition (kinh %) value, item mAb0048 (antibody, human IgG4 S228P, kappa, V domains shown, murine variable domains, human IgG4 S228P constant domain (type A), human kappa; also called 11F2 murine/human chimera) VH: DVQLQESGPGLVEPSQSLSLTCTVTGYSITSDCAWSWIRQFPGNKLEWMGYINYSGSTNYNPSLKSRISVTRDTSKNQFFLRLSSVTAEDTATYYCTRSVNYYGNSFAVGYWGQGTSVTVSS VL: DIVMTQSPATLSVTAGDRVSLSCRASQGISDYLHWYQQKSHESPRLLIKYTSQPVSGIPSRFSGSGSGSEFTLSINSVEPEDVGVYYCQNGHSFPLTFGAGTKLELKR
Out: 109

In: Consider the binder shown here: mAb0001 (antibody, V domains shown, fully murine, hybridoma-derived; also called 11F26) VH: EIQLQQTGPELVKPGASVKISCKASGYSFTDYIMVWMKQSQGKTLEWIGKINPYYGDISYNLKFKGKATLTVDKSSSTVYMQLNSLASEDSAVYYCARGFYYDYFDQWGQGTTLTVSS VL: DVMVTQTPLSLPVNLGDQASISCRSSQSLVHSNGNTYLHWYLQKPGQSPKLLIYRVSDRFSGVPDRFSGSGSGTDFTLKISRVEAEDLGVYFCSQSTHVPPTFGGGTKLEIK What is its recorded AT inhibition (kinh %)?
Out: 82

Further cases:
In: What value of measured AT inhibition (kinh %) is listed for mAb0004 (antibody, V domains shown, fully murine, hybridoma-derived; also called 11F19) VH: QVQLKESGPGLVAPSQSLSITCTVSGFSLTDYGVSWIRQPPGKGLEWLGVIWGGGNTYNNSALKSRLSISKDNSKSQVFLKMNSLQADDTAMYFCAKHGYYGYVMDYWGQGTSVTVSS VL: DIVMTQSHKIMSTLVGDRVSITCKASQDVDPAVAWYQQKPGQYPKLLIYWASTRHTGVPDRFTGSGSGTDFTLTISNVQSEDLADYFCQQYSKYPYTFGGGTKLEIK ?
Out: 24

In: If you can, please state the reported AT inhibition (kinh %) value of mAb0005 (antibody, V domains shown, fully murine, hybridoma-derived; also called 11F2; mAb005) VH: DVQLQESGPGLVEPSQSLSLTCTVTGYSITSDCAWSWIRQFPGNKLEWMGYINYSGSTNYNPSLKSRISVTRDTSKNQFFLRLSSVTAEDTATYYCTRSVNYYGNSFAVGYWGQGTSVTVSS VL: DIVMTQSPATLSVTAGDRVSLSCRASQGISDYLHWYQQKSHESPRLLIKYTSQPVSGIPSRFSGSGSGSEFTLSINSVEPEDVGVYYCQNGHSFPLTFGAGTKLELK .
Out: 133
